Hello, the source for this data is the supplement of paper PMC4862054, in case you need it.

Tested on: DU-4475
PROCEDURE SUMMARY: drug sensitivity score (DSS), CellTiter-Glo (DSS (AUC-based score)); higher = stronger drug effect (viability inhibition or cytotoxicity); extreme values may be limits of the assay
MEASUREMENT SETUP: incubation time: 72 h

COMPOUND	drug sensitivity score
COc1cccc2cc(-c3nc([C@H]4CC[C@H](C(=O)O)CC4)n4ncnc(N)c34)[nH]c12 [OSI-027]	2.39
Nc1nc(Cl)nc2c1ncn2[C@H]1C[C@H](O)[C@@H](CO)O1 [Cladribine]	0
CN(C)C/C=C/C(=O)Nc1cc2c(Nc3ccc(F)c(Cl)c3)ncnc2cc1O[C@H]1CCOC1 [Afatinib]	0
C=CC[C@@H]1/C=C(\C)C[C@H](C)C[C@H](OC)[C@H]2O[C@@](O)(C(=O)C(=O)N3CCCC[C@H]3C(=O)O[C@H](/C(C)=C/[C@@H]3CC[C@@H](O)[C@H](OC)C3)[C@H](C)[C@@H](O)CC1=O)[C@H](C)C[C@@H]2OC [Tacrolimus]	0
O=C(c1ccc(C(=O)N2CCC(N3CCCC3)CC2)c(Nc2ccccc2)c1)N1CCC(N2CCCC2)CC1 [UNC1215]	0
CO[C@H]1C[C@@H]2CC[C@@H](C)[C@@](O)(O2)C(=O)C(=O)N2CCCC[C@H]2C(=O)O[C@H]([C@H](C)C[C@@H]2CC[C@@H](OC(=O)C(C)(CO)CO)[C@H](OC)C2)CC(=O)[C@H](C)/C=C(\C)[C@@H](O)[C@@H](OC)C(=O)[C@H](C)C[C@H](C)/C=C/C=C/C=C/1C [Temsirolimus]	5.2
S=c1[nH]cnc2nc[nH]c12 [Mercaptopurine]	4
